- assay-name: Pharmacokinetics in mice (i.v. and p.o.)
- Format: in vivo, male CD-1 mice
- condition: male, CD-1, mouse, in vivo, iv, 1 mg/kg
measure-name: clearance (mL/min/kg)

compound: Cn1cccc(-c2cc(NCc3ccc(Cl)s3)n(C(=O)c3ccoc3)n2)c1=O
obs-value: 133

compound: O=C(c1ccoc1)n1nc(-c2cccn(Cc3ccccn3)c2=O)cc1NCc1ccc(Cl)s1
obs-value: 167

compound: O=C(c1ccoc1)n1nc(-c2cccn(Cc3ccco3)c2=O)cc1NCc1ccc(Cl)s1
obs-value: 167

compound: O=C(c1ccoc1)n1nc(-c2ccc[nH]c2=O)cc1NCc1ccc(Cl)s1
obs-value: 167

###

- assay-name: Pharmacokinetics in mice (i.v. and p.o.)
- Assay type: in vivo, male CD-1 mice
- condition: mouse, plasma, iv; male CD-1 mice, single i.v. dose 1 mg/kg, dose type A (5% dimethyl acetamide, tetraethylene glycol); read-out: i.v. C0
measure-name: C0 (ng/mL)
Numbers only here, please. The scale is ng/mL.

Query block: May I ask what C0 has been recorded for "CC(C)(C)C(=O)n1nc(C2CCNCC2)c(F)c1NCc1ccc(Cl)s1" ?
Result block: 200

###

- system-tested: Human KLKB1 (Homo sapiens (Human))
- Sequence (P03952 391-638 limits assumed): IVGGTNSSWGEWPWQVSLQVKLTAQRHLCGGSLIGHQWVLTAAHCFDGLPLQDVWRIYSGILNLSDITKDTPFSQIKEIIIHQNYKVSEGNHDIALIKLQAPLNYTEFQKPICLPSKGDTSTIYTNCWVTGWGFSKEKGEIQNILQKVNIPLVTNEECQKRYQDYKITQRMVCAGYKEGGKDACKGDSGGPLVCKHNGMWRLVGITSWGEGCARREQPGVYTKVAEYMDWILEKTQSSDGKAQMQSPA
- Sequence (P03952 20-390 partner limits assumed): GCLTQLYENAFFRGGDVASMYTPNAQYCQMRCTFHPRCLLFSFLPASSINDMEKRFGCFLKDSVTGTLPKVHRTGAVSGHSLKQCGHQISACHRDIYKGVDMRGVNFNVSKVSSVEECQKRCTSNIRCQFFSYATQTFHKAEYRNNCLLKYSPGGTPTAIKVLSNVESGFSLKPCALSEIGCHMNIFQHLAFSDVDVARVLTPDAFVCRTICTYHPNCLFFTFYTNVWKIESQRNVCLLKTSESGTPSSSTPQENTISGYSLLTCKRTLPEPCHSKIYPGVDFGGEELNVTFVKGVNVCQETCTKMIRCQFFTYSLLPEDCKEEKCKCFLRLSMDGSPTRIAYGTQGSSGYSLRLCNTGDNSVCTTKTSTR
- assay-name: KLKB1 kallikrein activity inhibition assay (chromogenic substrate S-2302)
- Format: biochemical
- condition: Table B
measure-name: IC50

In the examples that follow, each entry is paired with its recorded IC50.
compound: COc1ccccc1C(=O)n1nc(-c2ccccc2)c(F)c1NCc1ccccc1
IC50: > 100000 nM
//
compound: COc1ccccc1C(=O)n1nc(-c2cccn(Cc3cccnn3)c2=O)cc1NCc1ccc(Cl)s1
IC50: 100 to 1000 nM
//
compound: O=C(c1ccoc1)n1nc(-c2cccn(Cc3ccco3)c2=O)cc1NCc1ccc(Cl)s1
IC50: 1000 to 10000 nM
//
compound: CC(C)(CO)C(=O)n1nc(-c2ccccc2)c(F)c1NCc1ccc(Cl)s1
IC50: > 100000 nM
//
compound: Nc1ccccc1C(=O)n1nc(-c2ccco2)cc1NCc1ccc(Cl)s1
IC50: 1000 to 10000 nM
//
compound: COc1ccc(C(=O)n2nc(-c3cccn(CCN4CCOCC4)c3=O)cc2NCc2ccc(Cl)s2)c(OC)c1
IC50: 100 to 1000 nM

Query block: Notebook entry, Human KLKB1 (Homo sapiens (Human)) assay: IC50 of "O=C(c1ccc(N2CCOCC2)cc1)n1nc(-c2cccn(CCN3CCOCC3)c2=O)cc1NCc1ccc(Cl)s1" = ?
Result block: 100 to 1000 nM

Query block: Notebook entry, Human KLKB1 (Homo sapiens (Human)) assay: IC50 of "COc1ccccc1C(=O)n1nc(-c2ccccn2)cc1NCc1cccs1" = ?
Result block: > 100000 nM

Query block: Notebook entry, Human KLKB1 (Homo sapiens (Human)) assay: IC50 of "COc1ccccc1C(=O)n1nc(-c2ccccn2)cc1NCc1ccco1" = ?
Result block: > 100000 nM

###

- assay-name: Pharmacokinetics in mice (i.v. and p.o.)
- Format: in vivo, male CD-1 mice
- condition: mouse, plasma, iv; male CD-1 mice, single i.v. dose 1 mg/kg, dose type A (5% dimethyl acetamide, tetraethylene glycol); read-out: i.v. t1/2 (converted)
measure-name: half-life (h)
Numbers only here, please. The scale is h.

Query block: May I ask what half-life has been recorded for "CC(C)(C)C(=O)n1nc(C2CCNCC2)c(F)c1NCc1ccc(Cl)s1" ?
Result block: 1

###

- system-tested: Human thrombin (Homo sapiens (Human), UniProt P00734)
- assay-name: Thrombin protease activity inhibition assay (chromogenic substrate S-2238)
- Assay type: biochemical
- condition: 3 nM thrombin, 125 μM S-2238, 10 min pre-incubation, RT
pIC50: −log10 of the molar value.
The entries below come with measured pIC50 values attached.

Query block: Notebook entry, Human thrombin (Homo sapiens (Human), UniProt P00734) assay: pIC50 of "O=C(c1ccco1)n1nc(-c2cccn(Cc3ccsc3)c2=O)cc1NCc1ccc(Cl)s1" = ?
Result block: > 7.00

###

The entries below come with measured pIC50 values attached.
- system-tested: Human thrombin (Homo sapiens (Human), UniProt P00734)
- assay-name: Thrombin protease activity inhibition assay (chromogenic substrate S-2238)
- Assay type: biochemical
- condition: 3 nM thrombin, 125 μM S-2238, 10 min pre-incubation, RT
pIC50: −log10 of the molar value.

compound: COc1ccccc1C(=O)n1nc(-c2cccn(Cc3ccccn3)c2=O)cc1NCc1ccc(Cl)s1
system-tested: Human thrombin (Homo sapiens (Human), UniProt P00734)
measure-name: pIC50
obs-value: > 7.00

Query block: May I ask what pIC50 has been recorded for "O=C(c1ccccc1Cl)n1nc(-c2cccn(Cc3ccco3)c2=O)cc1NCc1ccc(Cl)s1" ?
Result block: > 7.00

Query block: May I ask what pIC50 has been recorded for "Cn1cccc(-c2cc(NCc3ccc(Cl)s3)n[nH]2)c1=O" ?
Result block: 4.00 to 5.00

Query block: May I ask what pIC50 has been recorded for "O=C(c1ccccc1Cl)n1nc(-c2cccn(Cc3ncccn3)c2=O)cc1NCc1ccc(Cl)s1" ?
Result block: > 7.00

###

- assay-name: Pharmacokinetics in mice (i.v. and p.o.)
- Assay type: in vivo, male CD-1 mice
- condition: male, CD-1, mouse, in vivo, po, 5 mg/kg
measure-name: half-life (min)

(1) O=C(c1ccoc1)n1nc(-c2ccc[nH]c2=O)cc1NCc1ccc(Cl)s1
(2) Cn1cccc(-c2cc(NCc3ccc(Cl)s3)n(C(=O)c3ccoc3)n2)c1=O
Query block: Hi there, can you help? I need to know whether 1 or 2 has lower measured half-life. // return label of chosen record
Result block: 2

###

- assay-name: Pharmacokinetics in mice (i.v. and p.o.)
- Format: in vivo, male CD-1 mice
- condition: male, CD-1, mouse, in vivo, iv, 1 mg/kg
measure-name: AUC (ng·h/mL)

compound: O=C(c1ccoc1)n1nc(-c2cccn(Cc3ccccn3)c2=O)cc1NCc1ccc(Cl)s1
measure-unit: ng·h/mL
AUC: 40
--
compound: O=C(c1ccoc1)n1nc(-c2ccc[nH]c2=O)cc1NCc1ccc(Cl)s1
measure-unit: ng·h/mL
AUC: 100

(a) Cn1cccc(-c2cc(NCc3ccc(Cl)s3)n(C(=O)c3ccoc3)n2)c1=O
(b) O=C(c1ccoc1)n1nc(-c2cccn(Cc3ccco3)c2=O)cc1NCc1ccc(Cl)s1
Query block: Hi there, can you help? I need to know whether a or b has lower measured AUC. // return label of chosen record
Result block: b
(b: 50 ng·h/mL, a: 100 ng·h/mL)

###

The entries below come with measured pIC50 values attached.
- system-tested: Human KLKB1 (Homo sapiens (Human))
- assay-name: KLKB1 kallikrein activity inhibition assay (chromogenic substrate S-2302)
- Type: biochemical
- condition: Table B
- Protocol: The KLKB1 kallikrein activity reported herein (e.g., Tables B, C, and D) was obtained as follows. Human KLKB1 protein was obtained from Enzyme Research Labs. […] KLKB1 was assayed in buffer containing 0.05 M Tris (pH 7.4), 0.01 M NaCl and 0.2% w/v PEG-8000. […] Inhibitor IC50 values were determined by adding test compound as ten point, three-fold serial dilutions in buffer solution, as known in the art. The plate was read at 10 minutes after substrate addition. […]
pIC50: −log10 of the molar value.

In the examples that follow, each entry is paired with its recorded pIC50.
molecule: COCCn1cccc(-c2cc(NCc3ccc(Cl)s3)n(C(=O)c3ccc(OC)cc3OC)n2)c1=O [Cmpd 122]
obs-value: 5.00 to 6.00
//
molecule: COCCn1cccc(-c2cc(NCc3ccc(Cl)s3)n(C(=O)c3cccc4c3OCCO4)n2)c1=O [Cmpd 109]
obs-value: 5.00 to 6.00

Note: attention shifts to another entry.
Query block: May I ask what pIC50 has been recorded for O=c1c(-c2cc(NCc3ccc(Cl)s3)[nH]n2)cccn1Cc1ccccn1 [Cmpd 227] ?
Result block: < 4.00

###

- system-tested: Human thrombin (Homo sapiens (Human), UniProt P00734)
- assay-name: Thrombin protease activity inhibition assay (chromogenic substrate S-2238)
- Assay type: biochemical
- condition: 3 nM thrombin, 125 μM S-2238, 10 min pre-incubation, RT
measure-name: IC50

In the examples that follow, each entry is paired with its recorded IC50.
compound: O=C(c1ccoc1)n1nc(-c2cccn(Cc3ccc(Cl)cc3)c2=O)cc1NCc1ccc(Cl)s1
system-tested: Human thrombin (Homo sapiens (Human), UniProt P00734)
IC50: < 100 nM

compound: O=C(c1cccc2c1OCCO2)n1nc(-c2cccn(Cc3ccccn3)c2=O)cc1NCc1ccc(Cl)s1
system-tested: Human thrombin (Homo sapiens (Human), UniProt P00734)
IC50: < 100 nM

compound: CC(C)(CO)C(=O)n1nc(-c2ccc[nH]c2=O)cc1NCc1ccc(Cl)s1
system-tested: Human thrombin (Homo sapiens (Human), UniProt P00734)
IC50: < 100 nM

compound: O=C(c1ccccc1)n1nc(-c2cccn(Cc3ccncc3)c2=O)cc1NCc1ccc(Cl)s1
system-tested: Human thrombin (Homo sapiens (Human), UniProt P00734)
IC50: > 100000 nM

Query block: May I ask what IC50 has been recorded for "COCCn1cccc(-c2cc(NCc3ccc(Cl)s3)n(C(=O)c3ccoc3)n2)c1=O" ?
Result block: > 100000 nM

Query block: May I ask what IC50 has been recorded for "O=C(c1ccc(N2CCOCC2)cc1)n1nc(-c2cccn(Cc3ccccn3)c2=O)cc1NCc1ccc(Cl)s1" ?
Result block: < 100 nM

Query block: May I ask what IC50 has been recorded for "O=C(c1ccccc1Cl)n1nc(-c2cccn(Cc3ccoc3)c2=O)cc1NCc1ccc(Cl)s1" ?
Result block: < 100 nM

Query block: May I ask what IC50 has been recorded for "COc1ccc(C(=O)n2nc(-c3cccn(Cc4cccnc4)c3=O)cc2NCc2ccc(Cl)s2)c(OC)c1" ?
Result block: < 100 nM
